Test: Mouse pharmacokinetics (oral gavage / intravenous)
Type: in vivo, mice
Settings: plasma, 30 mg/kg, read-out: F (oral bioavailability)
Assignment: determine reported bioavailability for the given molecules.
Report the figure in % without appending any unit label.

What does the data say about its bioavailability? Entry: O=C1NCC2(CCCCC2)n2c1cc1cnc(Nc3ccc(N4CCC(N5CCOCC5)CC4)cn3)nc12 67

What does the data say about its bioavailability? Entry: O=C1NCC2(CCCCC2)n2c1cc1cnc(Nc3ccc(N4CCNCC4)cn3)nc12 2

What does the data say about its bioavailability? Entry: CN1CCN(c2ccc(Nc3ncc4cc5n(c4n3)C3(CCCCC3)CNC5=O)nc2)CC1 80

What does the data say about its bioavailability? Entry: CC(C)N1CCN(c2ccc(Nc3ncc4cc5n(c4n3)C3(CCCCC3)CNC5=O)nc2)CC1 52

###

Biological target: CDK2/CyclinE (Homo sapiens (Human))
Assay: CDK2/cyclinE kinase assay (Nanosyn, microfluidic Caliper platform)
Settings: ATP at Km (100 uM); read-out: CDK2/CycE IC50
measurement name: IC50 (µM)
Report the figure in µM without appending any unit label.

What does the data say about its IC50? Entry: CC1CN(c2ccc(Nc3ncc4cc5n(c4n3)C3(CCCC3)CNC5=O)nc2)CCN1CCC(C)(C)C (stereo not shown) 16.5
